Origin of the recorded values: the supplement of paper PMC10065799

# SYSTEM_UNDER_TEST: EPHB2 (UniProt P29323)
# Sequence (P29323 whole entry, looked up): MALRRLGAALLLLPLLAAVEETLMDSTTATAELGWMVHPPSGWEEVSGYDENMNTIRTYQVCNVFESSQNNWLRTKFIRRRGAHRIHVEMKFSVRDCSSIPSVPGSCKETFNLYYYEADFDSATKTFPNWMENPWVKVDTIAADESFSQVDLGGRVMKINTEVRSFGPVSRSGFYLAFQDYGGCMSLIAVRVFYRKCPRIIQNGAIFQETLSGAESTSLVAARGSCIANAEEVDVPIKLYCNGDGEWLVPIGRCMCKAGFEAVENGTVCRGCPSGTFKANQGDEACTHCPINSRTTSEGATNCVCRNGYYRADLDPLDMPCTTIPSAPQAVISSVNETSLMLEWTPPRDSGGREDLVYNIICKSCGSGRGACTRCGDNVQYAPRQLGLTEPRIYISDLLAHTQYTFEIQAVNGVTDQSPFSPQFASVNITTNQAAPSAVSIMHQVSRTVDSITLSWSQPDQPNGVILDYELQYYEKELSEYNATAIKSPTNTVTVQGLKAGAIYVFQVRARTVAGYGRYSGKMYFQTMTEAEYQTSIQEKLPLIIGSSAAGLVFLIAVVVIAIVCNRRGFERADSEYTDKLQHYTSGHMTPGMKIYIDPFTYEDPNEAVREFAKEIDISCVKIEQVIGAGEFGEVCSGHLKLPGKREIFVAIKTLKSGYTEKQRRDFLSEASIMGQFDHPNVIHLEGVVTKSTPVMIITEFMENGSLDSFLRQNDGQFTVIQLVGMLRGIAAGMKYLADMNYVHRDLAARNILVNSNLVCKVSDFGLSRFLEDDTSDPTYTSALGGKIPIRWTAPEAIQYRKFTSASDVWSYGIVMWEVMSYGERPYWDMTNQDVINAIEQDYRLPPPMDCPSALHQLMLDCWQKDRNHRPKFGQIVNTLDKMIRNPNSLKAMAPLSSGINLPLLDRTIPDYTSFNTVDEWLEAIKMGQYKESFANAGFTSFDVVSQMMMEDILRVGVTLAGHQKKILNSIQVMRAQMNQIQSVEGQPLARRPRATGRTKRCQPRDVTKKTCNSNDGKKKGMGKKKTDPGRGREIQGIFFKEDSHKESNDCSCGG
# ASSAY_NAME: phosphorylation enrichment, bacterial display (enrichment ratio); higher = better substrate or ligand; peptides without Tyr show the background;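 note: 11-residue human phosphosite peptides and single-mutation variants displayed on the E. coli surface, counted by deep sequencing, each peptide's frequency after selection divided by its frequency in the unselected input library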;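 note: frequency after pTyr selection over input frequency; kinase dosed for 20-30% of maximal phosphorylation in three min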
Assign a class from recorded phosphorylation enrichment; defined classes: lo = under 0.5, med = from 0.5 up to 0.7, hi = 0.7 and over

Exercise: Lab note: which band did DPFHVYIKNRV [KCNE3_Y95_YF] land in?
Solution: lo

Exercise: Class (by measured phosphorylation enrichment) for FRTPGYREVVI [TNS2_Y673_A670T_YF]
Solution: lo

Exercise: Which of the defined bands does the recorded phosphorylation enrichment of IPTPAYQSSPA [PDCD6IP_Y727] sit within?
Solution: lo

Exercise: Category of TEAGNYKLCFD [TMED1_Y103_D102N] :
Solution: med

Exercise: GET /class?item= GHLFAYDWISI [BEST1_Y227_YF]
Solution: hi

Exercise: Could you tell me which band AVLQPYIFVAT [CFTR_Y1014] belongs to?
Solution: hi

Exercise: Any idea which band LPSKDYAEVGR [HP_Y272] is in?
Solution: hi

Exercise: Hi, small favor: classify ENGPYYTSYPP [GDAP2_Y488] by its phosphorylation enrichment when you get a moment.
Solution: hi

Exercise: Which band does KLQQWYREHRS [GPI_Y17] fall in?
Solution: lo

Exercise: read the entry PSSNLYYRWLT [CNGA3_Y168] and state which class it falls under.
Solution: hi

Exercise: State the class of the sequence shown: GVRLYYRVMES [RB1_Y454]
Solution: med

Exercise: Band for the recorded phosphorylation enrichment of WAAQRYGRELR [BAD_Y110] ?
Solution: lo

Exercise: Returns: class label. Input: ESLRRYLENGK [HLA-B_Y195_W191S]
Solution: lo

Exercise: GET /class?item= TACNPYKPPGP
Solution: lo

Exercise: Hi there! Could you help me figure out the category for DLNATYRTIQG [U2SURP_Y634] please?
Solution: hi

Exercise: Bin? NNRVFYGNSDR [RS1_Y177]
Solution: lo

Exercise: For the record PESILYRKFTT [NTRK1_Y701] , report the class its phosphorylation enrichment corresponds to.
Solution: med

Exercise: Dear colleague, I would appreciate it if you could identify the bin for MANYMYKAGPS [MAML2_Y515] and reply at your convenience.
Solution: hi

Exercise: Using the reported phosphorylation enrichment, which band applies to RQSTLYSFFPT [MSH6_Y8_K13T] ?
Solution: hi

Exercise: Given SKGYAYVHFDS [PABPC5_Y149] , name the class its phosphorylation enrichment places it in.
Solution: med

Exercise: Band for the recorded phosphorylation enrichment of PADSGYPAYLG [ATP6V1A_Y374] ?
Solution: lo

Exercise: Which bin should I file GFFDLYGGEKF [PTPN11_Y66_D61G_YF] under?
Solution: hi

Exercise: # classify by phosphorylation enrichment band: LSSEMCVKSYT [F5_Y2149_Y2149C]
Solution: hi

Exercise: GET /class?item= RSSKMYPKTRS [LPL_Y329_L330P]
Solution: lo

Exercise: Please classify: SVTCTYSPALH [TP53_Y126_N131H]
Solution: med

Exercise: Class for PVKDPYVMFPQ [PLEKHG2_Y489] ?
Solution: med

Exercise: Class for FENGEYIVRQG [PRKG1_Y247_I249V_YF] ?
Solution: med

Exercise: State the band of IHFPPYTDWNQ [ALDH3B2_Y365_YF]
Solution: med

Exercise: // bin(item) where item = FETNVYVDKNL [PTCHD3_Y688_K685T]
Solution: med

Exercise: Class? Entry: KLNNEHLELNY [MME_Y497_Y497H]
Solution: lo

Exercise: Category lookup for the sequence NFNPNYCFAGK [ALK_Y1096_D1091N_YF]
Solution: hi

Exercise: Please let me know in which category the item CEAMEYPESKQ [BTK_Y511_L512P] belongs.
Solution: hi

Exercise: Record PYADPYYDYEI [ZC3H18_Y371] — which class?
Solution: hi

Exercise: Please let me know in which category the item IDPYTYTPFGS [CYP3A4_Y432_I431T] belongs.
Solution: med

Exercise: Which phosphorylation enrichment band matches QRVLLYVQRET [GRHL3_Y518_R520Q] ?
Solution: hi

Exercise: Class label required: AERKLYSGAQT [ZAP70_Y178]
Solution: lo

Exercise: Please indicate the class for LDAFIYDAAVL [GRIN2A_Y730] based on its phosphorylation enrichment.
Solution: hi

Exercise: Which category fits this record: RLPSGYGLAYR [DLK1_Y262]
Solution: lo

Exercise: Hi there! Could you help me figure out the category for HAVYIYDICHV [TWNK_Y508_V507I] please?
Solution: hi

Exercise: Classify this sequence: GAAMLYFPSVS [GPR143_Y177_YF]
Solution: lo

Exercise: Kindly identify the class of RGDCMYASLLG [AR_Y269_P271S] .
Solution: hi

Exercise: Kindly identify the class of SVTCTYSPARN [TP53_Y126_L130R] .
Solution: med
